System: Staphylococcus aureus
test_description: Antimicrobial activity against Staphylococcus aureus at 20 uL of 1 mg/ml by disc diffusion assay
Assay type: functional
assay_conditions: read-out: IZ
I'd appreciate it if you could supply zone of inhibition at 1000 µg/mL values for the items below.
Express it in mm; write the number only.

# input Give the measured zone of inhibition at 1000 µg/mL of CCC(=O)N1N=C(c2ccc(Cl)cc2)CC1c1cn(-c2ccccc2)nc1-c1ccc(Cl)c(Cl)c1 (stereo not given) .
# output 30

# input What does the data say about its zone of inhibition at 1000 µg/mL? Entry: Cc1ccc(C2=NNC(c3cn(-c4ccccc4)nc3-c3ccc(Cl)c(Cl)c3)C2)cc1 (stereo not given)
# output 19

# input Reported zone of inhibition at 1000 µg/mL, molecule O=[N+]([O-])c1ccc(N2N=C(c3ccc(Cl)cc3)CC2c2cn(-c3ccccc3)nc2-c2ccc(Cl)c(Cl)c2)cc1 (stereo not given) : ____
# output 22

# input // lookup zone of inhibition at 1000 µg/mL for Fc1ccc(C2=NN(c3ccccc3)C(c3cn(-c4ccccc4)nc3-c3ccc(Cl)c(Cl)c3)C2)cc1 (stereo not given)
# output 31

# input # lookup: zone of inhibition at 1000 µg/mL of CC(=O)N1N=C(c2ccc(C)cc2)CC1c1cn(-c2ccccc2)nc1-c1ccc(Cl)c(Cl)c1 (stereo not given)
# output 19
